# Test system: C6
# protocolDetails: Cytotoxicity against Rattus norvegicus (rat) C6 cells after 4 days by cresylecth violet-staining method
# Assay type: functional, cell-based
# setupConditions: c6
observable: pEC50
Just the number, please; pEC50 means minus log10 of the concentration in mol/L.

stdin: Which pEC50 reading was recorded for the compound COc1cc2c(c(OC)c1)C(Cc1ccc(-c3ccccc3OC)cc1)NCC2.Cl (stereo in doubt; 25) ?
stdout: 6.20

stdin: Which pEC50 reading was recorded for the compound COc1cc2c(c(OC)c1)C(Cc1ccc(-c3ccccc3OC)cc1)NCC2 (single isomer, unassigned; (+)) ?
stdout: 6.59

stdin: Which pEC50 reading was recorded for the compound COc1cc2c(c(OC)c1)C(Cc1ccc(-c3ccccc3OC)cc1)NCC2 (stereo in doubt; (-)25) ?
stdout: 5.27

Recorded values, source ChEMBL document CHEMBL3045681.
